# TARGET_UNDER_TEST: recombinant human PKM2 (Homo sapiens, UniProt P14618)
# Construct: His (N); purchased R&D Systems
# Sequence (P14618 2-531 limits assumed): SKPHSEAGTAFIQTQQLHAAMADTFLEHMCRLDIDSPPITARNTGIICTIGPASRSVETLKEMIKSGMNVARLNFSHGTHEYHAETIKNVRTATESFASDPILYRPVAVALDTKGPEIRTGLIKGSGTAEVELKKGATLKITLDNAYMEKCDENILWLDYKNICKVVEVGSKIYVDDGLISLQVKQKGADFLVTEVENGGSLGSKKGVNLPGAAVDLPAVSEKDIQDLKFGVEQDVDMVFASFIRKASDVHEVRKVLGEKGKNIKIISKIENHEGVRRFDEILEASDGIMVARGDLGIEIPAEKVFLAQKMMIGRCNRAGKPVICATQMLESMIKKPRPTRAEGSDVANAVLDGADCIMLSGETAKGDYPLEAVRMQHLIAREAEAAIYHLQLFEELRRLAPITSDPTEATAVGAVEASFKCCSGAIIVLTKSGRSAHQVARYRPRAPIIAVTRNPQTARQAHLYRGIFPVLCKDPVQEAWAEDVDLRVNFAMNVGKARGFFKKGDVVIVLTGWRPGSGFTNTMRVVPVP
# EXPERIMENT_NOTES: Human PKM2 activation assay (Kinase-Glo Plus luminescent detection of generated ATP)
# Type: biochemical
# MEASUREMENT_CONDITIONS: percentage activation normalised to DMSO vehicle (LOW) and 5 μM TEPP-46 (HIGH); read-out: hPKM2 Emax
QUANTITY: Emax (%)

[[record]]
compound = "COc1ccc(Cn2ncc3cc(S(=O)(=O)c4cnn(C)c4)ccc3c2=O)cn1"
target_under_test = "recombinant human PKM2 (Homo sapiens, UniProt P14618)"
quantity = "Emax"
obs_value = 96

[[record]]
compound = "C[C@@H](O)c1cccc(Cn2ncc3cc(S(=O)(=O)c4cnn(C)c4)ccc3c2=O)n1 (single isomer, unassigned)"
target_under_test = "recombinant human PKM2 (Homo sapiens, UniProt P14618)"
quantity = "Emax"
obs_value = 88.7

[[record]]
compound = "COc1ccc(Cn2ncc3cc(S(=O)(=O)c4cc(C)ns4)ccc3c2=O)cn1"
target_under_test = "recombinant human PKM2 (Homo sapiens, UniProt P14618)"
quantity = "Emax"
obs_value = 71.3

[[record]]
compound = "O=c1c2ccc(S(=O)(=O)c3ccc4c(c3)OCCO4)cc2cnn1Cc1cc[nH]n1"
target_under_test = "recombinant human PKM2 (Homo sapiens, UniProt P14618)"
quantity = "Emax"
obs_value = 99.9

[[record]]
compound = "COc1ccc(S(=O)(=O)c2ccc3c(=O)n(Cc4ccn(CCO)n4)ncc3c2)nc1"
target_under_test = "recombinant human PKM2 (Homo sapiens, UniProt P14618)"
quantity = "Emax"
obs_value = 86.6

[[record]]
compound = "O=c1c2ccc(S(=O)(=O)c3cc[nH]n3)cc2cnn1Cc1ccc2occc2n1"
target_under_test = "recombinant human PKM2 (Homo sapiens, UniProt P14618)"
quantity = "Emax"
obs_value = 113

[[record]]
compound = "Cn1ccc(Cn2ncc3cc(S(=O)(=O)c4ccc5c(c4)NCCO5)ccc3c2=O)n1"
target_under_test = "recombinant human PKM2 (Homo sapiens, UniProt P14618)"
quantity = "Emax"
obs_value = 103

[[record]]
compound = "O=c1c2ccc(S(=O)(=O)c3ccccc3)cc2cnn1Cc1ccc(OC(F)F)nc1"
target_under_test = "recombinant human PKM2 (Homo sapiens, UniProt P14618)"
quantity = "Emax"
obs_value = 89.5

[[record]]
compound = "COC(C)c1nc(S(=O)(=O)c2ccc3c(=O)n(Cc4nc(C)c(C)cc4F)ncc3c2)cs1 (centres unmarked)"
target_under_test = "recombinant human PKM2 (Homo sapiens, UniProt P14618)"
quantity = "Emax"
obs_value = 105

[[record]]
compound = "COc1cnc(Cn2ncc3cc(S(=O)(=O)c4ccccc4)ccc3c2=O)cn1"
target_under_test = "recombinant human PKM2 (Homo sapiens, UniProt P14618)"
quantity = "Emax"
obs_value = 85.8

[[record]]
compound = "COc1ccc(Cn2ncc3cc(S(=O)(=O)c4cnn(C)c4C)ccc3c2=O)cn1"
target_under_test = "recombinant human PKM2 (Homo sapiens, UniProt P14618)"
quantity = "Emax"
obs_value = 102

[[record]]
compound = "Cc1c(Cn2ncc3cc(S(=O)(=O)c4cnn(C)c4)ccc3c2=O)nn2c1OCC2"
target_under_test = "recombinant human PKM2 (Homo sapiens, UniProt P14618)"
quantity = "Emax"
obs_value = 101

[[record]]
compound = "Cc1cc(S(=O)(=O)c2ccc3c(=O)n(Cc4ccc5c(n4)CCO5)ncc3c2)n[nH]1"
target_under_test = "recombinant human PKM2 (Homo sapiens, UniProt P14618)"
quantity = "Emax"
obs_value = 112

[[record]]
compound = "Cn1cc(S(=O)(=O)c2cc3cnn(Cc4cc[nH]n4)c(=O)c3cn2)cn1"
target_under_test = "recombinant human PKM2 (Homo sapiens, UniProt P14618)"
quantity = "Emax"
obs_value = 92.3

[[record]]
compound = "COc1ccc(F)c(Cn2ncc3cc(S(=O)(=O)c4ccccc4)ccc3c2=O)c1"
target_under_test = "recombinant human PKM2 (Homo sapiens, UniProt P14618)"
quantity = "Emax"
obs_value = 105

[[record]]
compound = "Cc1nc(S(=O)(=O)c2ccc3c(=O)n(Cc4ccn(C)n4)ncc3c2)cs1"
target_under_test = "recombinant human PKM2 (Homo sapiens, UniProt P14618)"
quantity = "Emax"
obs_value = 102

[[record]]
compound = "O=c1c2ccc(S(=O)(=O)c3cnn(C4CC4)c3)cc2cnn1Cc1ccn(C2CC2)n1"
target_under_test = "recombinant human PKM2 (Homo sapiens, UniProt P14618)"
quantity = "Emax"
obs_value = 98.9


###

# TARGET_UNDER_TEST: recombinant human PKLR (Homo sapiens)
# Construct: His (N); purchased R&D Systems
# Sequence (P30613 whole entry): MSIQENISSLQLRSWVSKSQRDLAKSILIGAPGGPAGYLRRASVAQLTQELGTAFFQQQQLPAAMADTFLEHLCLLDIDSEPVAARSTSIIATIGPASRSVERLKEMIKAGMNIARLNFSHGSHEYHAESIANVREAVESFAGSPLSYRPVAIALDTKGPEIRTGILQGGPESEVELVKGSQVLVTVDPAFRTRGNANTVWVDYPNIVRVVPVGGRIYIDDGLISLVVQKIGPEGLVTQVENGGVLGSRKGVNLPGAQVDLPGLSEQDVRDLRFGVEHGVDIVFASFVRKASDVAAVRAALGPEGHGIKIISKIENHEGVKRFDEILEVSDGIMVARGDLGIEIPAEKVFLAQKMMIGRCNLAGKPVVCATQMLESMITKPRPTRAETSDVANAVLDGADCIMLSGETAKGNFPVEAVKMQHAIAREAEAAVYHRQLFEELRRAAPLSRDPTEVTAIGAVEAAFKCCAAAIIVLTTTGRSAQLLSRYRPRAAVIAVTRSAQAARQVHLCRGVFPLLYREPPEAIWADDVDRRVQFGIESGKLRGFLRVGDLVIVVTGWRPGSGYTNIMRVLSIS
# EXPERIMENT_NOTES: Human PKLR activation assay (Kinase-Glo Plus luminescent detection of generated ATP)
# Assay type: biochemical
# MEASUREMENT_CONDITIONS: activation of recombinant human PKLR; 4-parameter logistic fit; read-out: hPKLR EC50
pEC50: −log10 of the molar value.
QUANTITY: pEC50

These solved cases illustrate the format of a correct answer.
[[record]]
compound = "O=c1c2ccc(S(=O)(=O)c3ccc4c(c3)NCCO4)cc2cnn1Cc1ccn(CCO)n1"
obs_value = 8.10

[[record]]
compound = "COc1ccc([S@@](=N)(=O)c2ccc3c(=O)n(Cc4ccc(OC)nc4)ncc3c2)cc1 (single isomer, unassigned) [Example 191]"
obs_value = 7.85


a = Cn1ccc(Cn2ncc3cc(S(=O)(=O)c4ccc5c(c4)NCCO5)ccc3c2=O)n1
b = Cc1cccc(Cn2ncc3cc(S(=O)(=O)c4cc[nH]n4)ccc3c2=O)n1
c = Cc1cccc(Cn2ncc3cc(S(=O)(=O)c4ccccc4)ccc3c2=O)n1
Problem: // ascending sort on recorded pEC50 Reply format: the labels, ordered as requested.
Solution: b, c, a

a = COc1ccc(S(=O)(=O)c2ccc3c(=O)n(Cc4cccc(N)c4)ncc3c2)cc1
b = Cn1ccc(Cn2ncc3cc(S(=O)(=O)c4cnn(C5CC5)c4)ccc3c2=O)n1
Problem: Parameter metric = pEC50. Return the lower-valued option from a and b . Please respond with the label that marks your chosen entry.
Solution: b

###

# TARGET_UNDER_TEST: recombinant human PKM2 (Homo sapiens)
# Construct: His (N); purchased R&D Systems
# EXPERIMENT_NOTES: Human PKM2 activation assay (Kinase-Glo Plus luminescent detection of generated ATP)
# Format: biochemical
# MEASUREMENT_CONDITIONS: percentage activation normalised to DMSO vehicle (LOW) and 5 μM TEPP-46 (HIGH); read-out: hPKM2 Emax
QUANTITY: Emax (%)

[[record]]
smiles = "Cc1c(Cl)c(Cn2ncc3cc(S(=O)(=O)c4cn[nH]c4)ccc3c2=O)nn1C"
target_under_test = "recombinant human PKM2 (Homo sapiens)"
obs_value = 96.4

[[record]]
smiles = "O=c1c2ccc(S(=O)(=O)c3ccc4c(c3)NCCO4)cc2cnn1Cc1ccn(CCO)n1"
target_under_test = "recombinant human PKM2 (Homo sapiens)"
obs_value = 109

[[record]]
smiles = "Cc1cccc(Cn2ncc3cc(S(=O)(=O)c4cnn(C5CC5)c4)ccc3c2=O)n1"
target_under_test = "recombinant human PKM2 (Homo sapiens)"
obs_value = 96.7

[[record]]
smiles = "Cc1cc2cc(S(=O)(=O)c3ccc4c(=O)n(Cc5cc[nH]n5)ncc4c3)ccc2o1"
target_under_test = "recombinant human PKM2 (Homo sapiens)"
obs_value = 121

[[record]]
smiles = "COc1ccc(Cn2ncc3cc(S(=O)(=O)c4ccn(C)n4)ccc3c2=O)cn1"
target_under_test = "recombinant human PKM2 (Homo sapiens)"
obs_value = 85.4

[[record]]
smiles = "O=c1c2ccc(S(=O)(=O)c3ccccc3)cc2cnn1Cc1cc(F)[nH]n1"
target_under_test = "recombinant human PKM2 (Homo sapiens)"
obs_value = 124

[[record]]
smiles = "Cc1cc(Cn2ncc3cc(S(=O)(=O)c4ccccc4)ccc3c2=O)nn1C"
target_under_test = "recombinant human PKM2 (Homo sapiens)"
obs_value = 106

[[record]]
smiles = "COc1cccc(Cn2ncc3cc(S(=O)(=O)c4ccccc4)ccc3c2=O)c1"
target_under_test = "recombinant human PKM2 (Homo sapiens)"
obs_value = 98.9


###

# TARGET_UNDER_TEST: recombinant human PKM2 (Homo sapiens, UniProt P14618)
# Construct: His (N); purchased R&D Systems
# EXPERIMENT_NOTES: Human PKM2 activation assay (Kinase-Glo Plus luminescent detection of generated ATP)
# Format: biochemical
# MEASUREMENT_CONDITIONS: recombinant human PKM2 activation; 4-parameter logistic fit; read-out: hPKM2 EC50
# Method: Compound activation of recombinant human PKM2 pyruvate kinase activity was determined by biochemical assay. […] The Kinase-Glo® Plus luminescence assay was from Promega. […] After 60 minutes' incubation on an orbital shaker (300 rpm, 26° C.), enzyme activity was quantified by the luminescent detection of generated ATP. […] Percentage activation was calculated by normalising […] signals to plate LOW (DMSO vehicle) and HIGH (5 μM TEPP-46) controls. […]
pEC50: −log10 of the molar value.
QUANTITY: pEC50

Some entries whose results are on file:
[[record]]
compound = "O=c1c2ccc(S(=O)(=O)c3cnn(CCO)c3)cc2cnn1Cc1cccc(C2CC2)n1 [Example 307]"
obs_value = 7.14

[[record]]
compound = "N=[S@](=O)(c1cn[nH]c1)c1ccc2c(=O)n(Cc3ccc4c(n3)CCO4)ncc2c1 (stereo in doubt) [Example 363]"
obs_value = 6.89


1 = O=c1c2ccc(S(=O)(=O)c3cnn(C(F)F)c3)cc2cnn1Cc1ccc2c(n1)CCO2 [Example 340]
2 = O=c1c2ccc(S(=O)(=O)c3cnn(C4CC4)c3)cc2cnn1Cc1cccnc1O [Example 193]
3 = Cc1[nH]nc(Cn2ncc3cc(S(=O)(=O)c4ccn(C)n4)ccc3c2=O)c1Cl [Example 337]
Problem: Ascending sort, pEC50. In your reply, arrange the labels in the requested order.
Solution: 2, 3, 1

I = Nc1cccc(Cn2ncc3cc(S(=O)(=O)c4ccc5c(c4)CCO5)ccc3c2=O)c1 [Example 143]
II = O=c1c2ccc(S(=O)(=O)c3ccccc3)cc2cnn1Cc1cnc2ccccn12 [Example 261]
III = COc1ncccc1Cn1ncc2cc(S(=O)(=O)c3cn[nH]c3)ccc2c1=O [Example 284]
Problem: // ascending sort on recorded pEC50 Respond with an ordered listing of the labels, as requested.
Solution: III, II, I
(III: 6.34, II: 6.67, I: 7.56)
